# Tested on: OVISE (Ovarian Carcinoma);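 also: after 72 h of two-drug dosing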
# MEASUREMENT NOTES: Bliss excess, mean over the matrix (fraction); higher = more synergy
READOUT TYPE: Bliss excess
Could you respond with only the numeric value?

- COMPOUND: "Cc1cc2ncnn2cc1Nc1ncc2c(n1)n(C1CCOCC1)c(=O)n2C [AZD7648] + C=CCn1c(=O)c2cnc(Nc3ccc(N4CCN(C)CC4)cc3)nc2n1-c1cccc(C(C)(C)O)n1 [AZD1775] (first compound max 10 µM, partner max 1 µM)"
  TARGET OF ASSAY: "OVISE (Ovarian Carcinoma)"
  Bliss excess: -0.0043

Query: // output Bliss excess; input COc1nnc2ccc(N3CCC(c4ccc(OCCN5CCN(C)C(=O)[C@H]5C)cc4)CC3)nn12 [AZD5153] + Cc1c2c(nn1C)CSCc1cc(n(C)n1)CSc1cc(c3ccccc3c1)OCCCc1c(C(=O)O)n(C)c3c-2c(Cl)ccc13 [AZD5991] (first compound max 1 µM, 7x7, partner max 1 µM) ; system OVISE (Ovarian Carcinoma);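 also: after 72 h of two-drug dosing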
Reply: -0.039
